Assign pIC50 to each entry below.
- Tested on: MCF7
- assay.remarks: cells
- condition.info: Homo sapiens, MCF7, 72 h
Worth noting: pIC50 values are minus log10 of concentrations stated in mol/L.

Lab book: pIC50 of CNC(=O)c1cnc2ccc(-c3cnc4ccccc4c3)cc2c1Nc1ccc(C(C)(C)C#N)cc1 noted as 5.89

Lab book: pIC50 of NC(=O)c1cnc2ccc(-c3cnc4ccccc4c3)cc2c1Nc1cccc(C(F)(F)F)c1 noted as 6.22

Lab book: pIC50 of COc1ccc(-c2ccc3ncc(C(N)=O)c(Nc4ccc(N5CCNCC5)c(C(F)(F)F)c4)c3c2)cn1 noted as 6.11

Lab book: pIC50 of CS(=O)(=O)N1CCN(c2ccc(Nc3c(C(N)=O)cnc4ccc(-c5cnc6ccccc6c5)cc34)cc2C(F)(F)F)CC1 noted as 6.44

Lab book: pIC50 of Cn1c(=O)n(-c2ccc(C(C)(C)C#N)cc2)c2c3cc(-c4cnc5ccccc5c4)ccc3ncc21 [DACTOLISIB] noted as 7.30

Lab book: pIC50 of NC(=O)c1cnc2ccc(-c3ccc(N)nc3)cc2c1Nc1cccc(C(F)(F)F)c1 noted as 6.39

Lab book: pIC50 of CC(C)(C#N)c1ccc(Nc2c(C(N)=O)cnc3ccc(-c4cnc5ccccc5c4)cc23)cc1 noted as 6.02

Lab book: pIC50 of Cn1nccc1-c1ccc2ncc(C(N)=O)c(Nc3ccc(N4CCN(S(C)(=O)=O)CC4)c(C(F)(F)F)c3)c2c1 noted as 5.57

* * *

- assay.remarks: Metabolic stability in human liver microsomes after 30 mins
- Assay type: ADME
- condition.info: read-out: Stability
parameter: remaining at 0.5 h
Dear colleague, please send the value followed by its unit.

Lab book: remaining at 0.5 h of Cl.NC(=O)c1cnc2ccc(-c3cnc4ccccc4c3)cc2c1Nc1ccc(N2CCNCC2)c(C(F)(F)F)c1 noted as 80%
